# SYSTEM_NAME: G-protein coupled receptor 151 (Homo sapiens)
# PROTOCOL_DETAILS: activators of human GPR151, primary screen, cell-based, PathHunter beta-arrestin, luminescence (AID 1508602);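 also: 0% = median of compound wells and 100% = cells with positive control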
# MEASUREMENT_CONDITIONS: PathHunter beta-arrestin GPR151 cells, at 11.2 µM, hits give high values
Hit rate of the full screen: of about 650,000 compounds, about 6,800 (1%) were called active. The sample as a whole holds a higher share of actives than the screen did.
Give activation for every item shown.
Please give a number only; it is taken to be in %.

Exercise: I have this molecule here, `Cn1c(=O)c2c(nc(SCC(=O)O)n2Cc2ccc(F)cc2)n(C)c1=O` , and I need its recorded activation.
Solution: 8.98

Exercise: I have this molecule here, `CCOc1ccc(NC(=O)N2CCN(CC)CC2)cc1` , and I need its recorded activation.
Solution: 5.53

Exercise: I have this molecule here, `CC(C)C[C@@H]1NC(=O)[C@@H]2C[C@H](NCc3cn(C)nc3-c3ccccc3)CN2C1=O` , and I need its recorded activation.
Solution: 2.5

Exercise: I have this molecule here, `CCOc1ccc(NC(=O)N2CCC(N(C)CCC(C)C)CC2)cc1` , and I need its recorded activation.
Solution: -0.0877

Exercise: I have this molecule here, `Cc1cc(C)cc(OCC(=O)NNC(=O)c2cccc(Cl)c2)c1` , and I need its recorded activation.
Solution: 0.56

Exercise: I have this molecule here, COc1ccc(C2=NN(C(=O)CSc3nnc(CNC(=O)c4ccc(S(=O)(=O)N(C)C)cc4)n3C)C(c3ccc(C)cc3)C2)cc1 (stereo not drawn) , and I need its recorded activation.
Solution: 1.11

Exercise: I have this molecule here, `Cc1nn2c(N3CCNCC3)c3c(nc2c1-c1ccccc1)CCC3` , and I need its recorded activation.
Solution: -1.05

Exercise: I have this molecule here, O=C(Cc1cccs1)N1CCCCC1c1nc2ccccc2[nH]1 (stereo not drawn) , and I need its recorded activation.
Solution: 0.204

Exercise: I have this molecule here, `C=CCN1C(=O)/C(=C\c2cc(Br)ccc2OCC)C(=O)NC1=S` , and I need its recorded activation.
Solution: 0.0155

Exercise: I have this molecule here, `O=C1COc2cc(S(=O)(=O)CCC(=O)N3CCN(c4ccccc4F)CC3)ccc2N1` , and I need its recorded activation.
Solution: 0.891

Exercise: I have this molecule here, `C#CCOc1ccc(C=C2C(=O)NC(=S)NC2=O)cc1Cl` , and I need its recorded activation.
Solution: -0.112

Exercise: I have this molecule here, `Nc1cccc(-c2ncc(C(=O)NC3CC3)s2)c1` , and I need its recorded activation.
Solution: -0.0842

Exercise: I have this molecule here, `O=C(Nc1cccc(Oc2ccc(C(=O)O)c(C(=O)O)c2)c1)c1cccs1` , and I need its recorded activation.
Solution: -1.23

Exercise: I have this molecule here, O=C(C(Cc1ccccc1)N1C(=O)C2C3CCC(C3)C2C1=O)N1CCOCC1 (stereo not drawn) , and I need its recorded activation.
Solution: 0.906

Exercise: I have this molecule here, COc1ccc(C(=O)C2CCCN(S(=O)(=O)c3cccc(C)c3)C2)c(C)c1 (stereo not drawn) , and I need its recorded activation.
Solution: 5.47

Exercise: I have this molecule here, `COCCOC(=O)C1=C(C)Nc2ccccc2S1` , and I need its recorded activation.
Solution: 1.48

Exercise: I have this molecule here, `Cc1csc(Nc2ncnc(N)c2[N+](=O)[O-])n1` , and I need its recorded activation.
Solution: -0.642

Exercise: I have this molecule here, `C#CCOc1ccc(Br)cc1/C=C1\NC(=S)N(C)C1=O` , and I need its recorded activation.
Solution: 5.86

Exercise: I have this molecule here, `Cc1ccc[n+](-c2ncnc(N)c2[N+](=O)[O-])c1` , and I need its recorded activation.
Solution: 6.28

Exercise: I have this molecule here, `Nc1cc(Cl)ccc1C(=O)OCC(=O)Nc1ccc(N2CCCCC2)cc1` , and I need its recorded activation.
Solution: 2.3

Exercise: I have this molecule here, `COc1ccc(C(=O)NNC(=O)c2cccc(Cl)c2)cc1OC` , and I need its recorded activation.
Solution: 1.28

Exercise: I have this molecule here, `Cn1cnnc1Sc1nc2c(c(=O)n(C)c(=O)n2C)n1Cc1ccc(F)cc1` , and I need its recorded activation.
Solution: -1.79

Exercise: I have this molecule here, `CCOc1ccc(NC(=O)CN2CCN(CC(N)=O)CC2)cc1` , and I need its recorded activation.
Solution: 0.536

---

# SYSTEM_NAME: G-protein coupled receptor 151 (Homo sapiens) (UniProt Q8TDV0)
# Sequence (Q8TDV0 whole entry, looked up): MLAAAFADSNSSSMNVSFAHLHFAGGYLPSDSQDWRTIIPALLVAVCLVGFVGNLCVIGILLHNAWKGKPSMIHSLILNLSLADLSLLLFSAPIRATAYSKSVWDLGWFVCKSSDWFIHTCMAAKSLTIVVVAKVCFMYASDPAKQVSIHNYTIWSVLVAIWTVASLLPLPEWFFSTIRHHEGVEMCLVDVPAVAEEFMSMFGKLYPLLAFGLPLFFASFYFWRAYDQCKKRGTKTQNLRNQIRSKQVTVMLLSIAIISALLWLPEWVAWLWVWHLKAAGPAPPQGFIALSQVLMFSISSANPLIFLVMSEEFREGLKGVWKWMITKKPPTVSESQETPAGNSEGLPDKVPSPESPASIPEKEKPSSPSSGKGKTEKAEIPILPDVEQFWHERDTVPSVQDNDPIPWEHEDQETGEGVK
# PROTOCOL_DETAILS: activators of human GPR151, primary screen, cell-based, PathHunter beta-arrestin, luminescence (AID 1508602);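 also: 0% = median of compound wells and 100% = cells with positive control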
# MEASUREMENT_CONDITIONS: PathHunter beta-arrestin GPR151 cells, at 11.2 µM, hits give high values
Hit rate of the full screen: of about 650,000 compounds, about 6,800 (1%) were called active. For the sample, actives were picked, then their nearest neighbours and some compounds at random.
READOUT_KIND: activation (%)
Please give a number only; it is taken to be in %.

Exercise: I have this molecule here, `Cc1sc2nc(Cc3ccccc3)[nH]c(=O)c2c1C` , and I need its recorded activation.
Solution: 0.303

Exercise: I have this molecule here, O=C(NCc1nnc(SCC(=O)N2N=C(c3cccs3)CC2c2ccc(F)cc2)n1Cc1ccccc1)c1cccc(F)c1 (configuration not stated) , and I need its recorded activation.
Solution: 5.02

Exercise: I have this molecule here, `Cc1sc2nc(CN(C(=O)C3CC3)C3CCCC3)[nH]c(=O)c2c1C` , and I need its recorded activation.
Solution: 0.605

Exercise: I have this molecule here, `O=C1CCCN1CCn1cnc2c(NCc3nc4ccccc4[nH]3)nc(N3CCc4ccccc4C3)nc21` , and I need its recorded activation.
Solution: -1.26

Exercise: I have this molecule here, O=C(c1ccc(N2CCC(NCc3cccc(F)c3F)CC2)cc1)N1CCCC(CO)C1 (configuration not stated) , and I need its recorded activation.
Solution: 0.257

Exercise: I have this molecule here, `O=C(COc1ccc(Cl)cc1Cl)NCc1nc(-c2ccccc2)no1` , and I need its recorded activation.
Solution: -1.12

Exercise: I have this molecule here, `O=C(NCCc1ccc(O)cc1)c1cccc(Nc2ccncn2)n1` , and I need its recorded activation.
Solution: -1.69

Exercise: I have this molecule here, `Cc1ccc(-n2[nH]c(C)c(C=Nc3ccc(N=Cc4c(C)[nH]n(-c5ccc(C)c(C)c5)c4=O)cc3)c2=O)cc1C` , and I need its recorded activation.
Solution: 1.34

Exercise: I have this molecule here, Cc1ccc(Cl)cc1NC(=O)C1CC(=O)c2ccccc21 (configuration not stated) , and I need its recorded activation.
Solution: 0.739

Exercise: I have this molecule here, `CC(=O)Nc1nc2c(s1)-c1cccc3cccc-2c13` , and I need its recorded activation.
Solution: -0.686

Exercise: I have this molecule here, CCC1(c2ccc(Cl)cc2Cl)NC(=S)N(c2ccc(C)c(C)c2)N1 (configuration not stated) , and I need its recorded activation.
Solution: 6.17

Exercise: I have this molecule here, `CCOC(=O)c1c(NC(=O)Cc2ccc([N+](=O)[O-])cc2)sc(C)c1C` , and I need its recorded activation.
Solution: -0.865

Exercise: I have this molecule here, `Cc1ccc(N2NC3(CCCCC3)NC2=S)cc1C` , and I need its recorded activation.
Solution: 1.89

Exercise: I have this molecule here, `COC(=O)c1c(NC(=O)c2ccc(Cl)c(Cl)c2)sc2c1CCCC2` , and I need its recorded activation.
Solution: 0.167

Exercise: I have this molecule here, `CCOC(=O)c1c(NC(=O)CSc2nc3ccccc3[nH]2)sc2c1CCC2` , and I need its recorded activation.
Solution: -0.467

Exercise: I have this molecule here, `COc1ccc(-n2c(=S)[nH]c3cc(C(=O)Nc4cccc(Cl)c4)ccc3c2=O)c(OC)c1` , and I need its recorded activation.
Solution: 1.31

Exercise: I have this molecule here, `CCOC(=O)c1c(NC(=O)Nc2cccc(Cl)c2)sc2c1CCCC2` , and I need its recorded activation.
Solution: 0.0535

Exercise: I have this molecule here, `O=C(c1cccc(NS(=O)(=O)c2ccc(Cl)cc2)c1)N1CCCC1` , and I need its recorded activation.
Solution: -1.72

Exercise: I have this molecule here, `CC(=O)N(c1nc(C=O)cs1)c1ccccc1F` , and I need its recorded activation.
Solution: 1.55

Exercise: I have this molecule here, `Cc1ccccc1C(=O)NCc1nc(-c2ccc(Cl)cc2)no1` , and I need its recorded activation.
Solution: 6.7

Exercise: I have this molecule here, `COC(=O)c1c(NC(=O)Nc2ccc(Cl)c(Cl)c2)sc2c1CCCC2` , and I need its recorded activation.
Solution: 8.57

Exercise: I have this molecule here, CNC(=O)c1c(NC(=O)c2ccccc2F)sc2c1CCC(C(C)(C)C)C2 (configuration not stated) , and I need its recorded activation.
Solution: 2.94
